Data credit: paper PMC11352859

Please provide measured log10 Ki for the entries that follow.
system name: α2A (Homo sapiens, UniProt P08913)
Construct: NIMH Psychoactive Drug Screening Program (PDSP)
Sequence (P08913 whole entry): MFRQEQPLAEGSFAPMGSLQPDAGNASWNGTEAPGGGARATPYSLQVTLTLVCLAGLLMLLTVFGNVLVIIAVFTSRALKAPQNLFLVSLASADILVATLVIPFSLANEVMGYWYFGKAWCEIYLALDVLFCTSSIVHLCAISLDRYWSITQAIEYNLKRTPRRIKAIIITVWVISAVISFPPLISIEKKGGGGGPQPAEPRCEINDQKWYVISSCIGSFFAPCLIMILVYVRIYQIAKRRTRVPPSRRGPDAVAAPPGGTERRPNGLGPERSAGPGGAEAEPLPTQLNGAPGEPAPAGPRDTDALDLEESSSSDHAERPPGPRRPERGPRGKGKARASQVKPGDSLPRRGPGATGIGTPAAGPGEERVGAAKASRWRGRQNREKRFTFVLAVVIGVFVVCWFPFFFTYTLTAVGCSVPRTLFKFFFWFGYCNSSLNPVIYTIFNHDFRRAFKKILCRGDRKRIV
protocol details: PDSP binding assay, α2A
assay context: PDSP, mean, n = 2; read-out: Ki, α2A
Use the decimal logarithm of Ki (nM).

## Input Reported log10 Ki for α2A (Homo sapiens, UniProt P08913), given CC(C)(C)OC(=O)NCCCCCCCC#Cc1ccc2c(c1)C=C([N+](=O)[O-])C(C(F)(F)F)O2 (stereo not drawn) ?
## Output 1.93

## Input Reported log10 Ki for α2A (Homo sapiens, UniProt P08913), given CC(C)(C)C(=O)NCCCCCCCC#Cc1ccc2c(c1)C=C([N+](=O)[O-])C(C(F)(F)F)O2 (stereo not drawn) ?
## Output 3.54

## Input Reported log10 Ki for α2A (Homo sapiens, UniProt P08913), given CC(C)(C)OC(=O)NCCCCCCCC#Cc1cccc2c1OC(C(F)(F)F)C([N+](=O)[O-])=C2 (stereo not drawn) ?
## Output 3.72

## Input Reported log10 Ki for α2A (Homo sapiens, UniProt P08913), given CC(C)(C)OC(=O)NCCC#Cc1ccc2c(c1)C=C([N+](=O)[O-])C(C(F)(F)F)O2 (stereo not drawn) ?
## Output 3.20

## Input Reported log10 Ki for α2A (Homo sapiens, UniProt P08913), given CC(C)(C)OC(=O)NCCCCC#Cc1ccc2c(c1)C=C([N+](=O)[O-])C(C(F)(F)F)O2 (stereo not drawn) ?
## Output 2.20

## Input Reported log10 Ki for α2A (Homo sapiens, UniProt P08913), given CC(C)(C)OC(=O)NCCCCCC#Cc1ccc2c(c1)C=C([N+](=O)[O-])C(C(F)(F)F)O2 (stereo not drawn) ?
## Output 2.88
